Biological target: T1, EsCas13d, nuclease-dead (Eubacterium siraeum, UniProt B0MS50, R295A;H300A;R849A;H854A)
T1 sequence: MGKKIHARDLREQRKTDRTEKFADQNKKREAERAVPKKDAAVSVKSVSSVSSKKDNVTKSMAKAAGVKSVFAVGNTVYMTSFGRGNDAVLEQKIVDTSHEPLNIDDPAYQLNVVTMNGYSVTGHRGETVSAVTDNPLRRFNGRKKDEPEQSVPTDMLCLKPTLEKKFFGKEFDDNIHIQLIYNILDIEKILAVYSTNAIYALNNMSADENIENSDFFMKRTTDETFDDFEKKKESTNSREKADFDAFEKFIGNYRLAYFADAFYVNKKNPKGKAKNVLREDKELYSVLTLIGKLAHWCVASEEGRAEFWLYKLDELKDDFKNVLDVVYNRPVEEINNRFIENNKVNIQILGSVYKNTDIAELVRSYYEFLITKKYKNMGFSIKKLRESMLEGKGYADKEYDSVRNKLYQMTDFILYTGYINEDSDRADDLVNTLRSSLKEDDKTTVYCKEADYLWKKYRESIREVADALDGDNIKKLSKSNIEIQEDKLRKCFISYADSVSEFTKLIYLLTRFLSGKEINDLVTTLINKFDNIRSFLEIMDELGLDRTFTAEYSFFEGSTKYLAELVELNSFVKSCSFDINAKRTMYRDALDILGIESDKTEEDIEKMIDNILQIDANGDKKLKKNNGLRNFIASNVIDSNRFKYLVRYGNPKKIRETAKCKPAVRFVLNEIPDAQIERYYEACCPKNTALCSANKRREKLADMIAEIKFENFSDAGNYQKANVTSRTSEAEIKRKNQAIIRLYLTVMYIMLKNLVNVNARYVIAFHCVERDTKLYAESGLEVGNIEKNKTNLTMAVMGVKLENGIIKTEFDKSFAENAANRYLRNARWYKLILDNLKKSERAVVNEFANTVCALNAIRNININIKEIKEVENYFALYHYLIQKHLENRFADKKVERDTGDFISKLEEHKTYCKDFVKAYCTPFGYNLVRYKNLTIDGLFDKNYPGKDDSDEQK
Assay: crRNA (strand 1, pre-loaded); Mg2+; 40 mM Tris-HCl pH 7.5, 150 mM NaCl, 6 mM MgCl2, 1 mM DTT, 0.1% Tween-20, 0.2 mg/ml BSA; 25 C; 10 min per concentration, then washed
Conditions: tags: His6-TwinStrep-SUMO cleaved; N-terminal SNAP kept (SNAP-Surface 488); label: 3' end held by stalled T7 RNA polymerase
assay.endpoint: pKd
Keep in mind that pKd stands for -log10 of concentration in molar terms.

Reference set (2 entries):
{"binder": "target 1 MT 5'PFS UAG 3'PFS CUU (mixed) RNA 1: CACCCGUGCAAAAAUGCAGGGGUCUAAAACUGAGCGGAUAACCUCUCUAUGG RNA 2: GGGAAUGGAUCCACAUCUACGAAUUCUAGCCAUAGAGAGGUUAUCCGCUCACUUAGAUCGGAAGAGCACACGU", "pKd": 7.55}
{"binder": "target 1 MT 5'PFS CCG 3'PFS AUU (mixed) RNA 1: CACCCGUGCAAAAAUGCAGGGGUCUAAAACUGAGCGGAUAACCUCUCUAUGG RNA 2: GGGAAUGGAUCCACAUCUACGAAUUCCCGCCAUAGAGAGGUUAUCCGCUCAAUUAGAUCGGAAGAGCACACGU", "pKd": 8.43}

Next up:
Recorded result, target 1 insC 3' of 11,insG 3' of 7 (mixed) RNA 1: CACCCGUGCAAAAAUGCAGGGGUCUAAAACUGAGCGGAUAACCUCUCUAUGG RNA 2: GGGAAUGGAUCCACAUCUACGAAUUCGUACCAUAGAGAGGUCUAUCGCGCUCACCGAGAUCGGAAGAGCACACGU , pKd: 7.62

Recorded values, source paper PMC10786891.
